experimental-system: Recombinant STAT3 protein (STAT3 (G127-I722)) (Homo sapiens, UniProt P40763)
Construct: Recombinant STAT3 protein (STAT3 (G127-I722))
Sequence (P40763 127-722): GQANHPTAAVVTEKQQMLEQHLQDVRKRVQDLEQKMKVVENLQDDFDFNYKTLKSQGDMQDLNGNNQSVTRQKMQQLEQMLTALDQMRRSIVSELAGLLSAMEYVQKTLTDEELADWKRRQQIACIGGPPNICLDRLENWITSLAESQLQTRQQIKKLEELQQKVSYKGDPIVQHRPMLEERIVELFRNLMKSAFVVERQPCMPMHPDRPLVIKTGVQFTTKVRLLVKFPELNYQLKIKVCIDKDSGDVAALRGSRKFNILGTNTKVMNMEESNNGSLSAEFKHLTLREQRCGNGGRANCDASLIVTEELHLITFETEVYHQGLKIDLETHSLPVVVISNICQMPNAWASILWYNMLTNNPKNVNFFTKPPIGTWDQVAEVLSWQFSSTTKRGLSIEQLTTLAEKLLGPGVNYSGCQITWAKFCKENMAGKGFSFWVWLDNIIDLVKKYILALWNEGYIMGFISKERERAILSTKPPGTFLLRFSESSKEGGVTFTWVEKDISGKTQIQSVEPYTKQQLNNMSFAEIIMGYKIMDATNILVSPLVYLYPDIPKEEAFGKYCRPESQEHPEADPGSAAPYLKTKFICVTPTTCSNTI
procedure-summary: STAT3 Fluorescence Polarization (FP) Assay
Assay type: binding
condition: STAT3 25 nM, probe 5-FAM-GpYLPQTV-NH2 2 nM, 45-minute incubation; read-out: STAT3 (FP assay IC50)
pIC50: −log10 of the molar value.
Listed here: items and their measured pIC50.

These recorded examples may help you get a feel for the data.
molecule | pIC50
C[C@@H]1C[C@H](NC(=O)c2cc3cc(C(F)(F)P(=O)(O)O)ccc3s2)C(=O)N2[C@H](CC[C@H]2C(=O)N2CC[C@@H](c3ccccc3)C2)C[C@H]1O | 5.00 to 6.00
O=C(N[C@H]1CCCC[C@H]2CC[C@@H](C(=O)Nc3ccc4c(c3)CCS4(=O)=O)N2C1=O)c1cc2cc(C(F)(F)P(=O)(O)O)ccc2s1 | 6.00 to 7.00
O=C(N[C@H]1CCC[C@H]2CC[C@@H](C(=O)N3CC(O)(c4ccccn4)C3)N2C1=O)c1cc2cc(C(F)(F)P(=O)(O)O)ccc2s1 | > 7.00
O=C(N[C@H]1CCCC[C@H]2CCC[C@@H](C(=O)N3CC(n4ccnc4)C3)N2C1=O)c1cc2cc(C(F)(F)P(=O)(O)O)ccc2s1 | < 5.00
N#Cc1[nH]nc2ccc(NC(=O)[C@@H]3CC[C@@H]4CCCC[C@H](NC(=O)c5cc6cc(C(F)(F)P(=O)(O)O)ccc6s5)C(=O)N43)cc12 | 5.00 to 6.00

Reported pIC50 (Recombinant STAT3 protein (STAT3 (G127-I722)) (Homo sapiens, UniProt P40763)) for entry O=C(N[C@H]1CCC[C@H]2CC[C@@H](C(=O)N3CC(c4nc5ccccc5[nH]4)C3)N2C1=O)c1cc2cc(C(F)(F)P(=O)(O)O)ccc2s1 is > 7.00

Value (pIC50, Recombinant STAT3 protein (STAT3 (G127-I722)) (Homo sapiens, UniProt P40763)) for record N=S1(=O)CC2(CN(C(=O)[C@@H]3CC[C@@H]4CCCC[C@H](NC(=O)c5cc6cc(C(F)(F)P(=O)(O)O)ccc6s5)C(=O)N43)C2)C1 = 6.00 to 7.00
